- System: A549
- EXPERIMENTAL_PROTOCOL: NCI tumour cell line growth inhibition, 48 h
Calls of active or inactive are those of the source. No stated cut-off is given here; in the data, active = GI50 up to about 1.1 µM and inactive = higher.
Classes used: active, inactive

compound=CC(=O)Nc1cc(C(=O)Nc2cc(C(=O)Nc3cc(C(=O)Nc4cc(C(=O)Nc5cc(C(=O)NCCC(=O)NCCCN(C)C)n(C)c5)n(C)c4)n(C)c3)n(C)c2)n(C)c1 assigned_category=inactive
compound=O=c1c(=O)c2c(Br)sc(Br)c2c1=O assigned_category=inactive
compound=CC[C@]1(Cc2ccc(OC)c(OC)c2)CN(S(=O)(=O)c2ccc(C)cc2)C[C@@H]1OC(C)=O assigned_category=inactive
compound="CC(C)=CC(=O)OC1C2C(C)=CC(O)C(O)C2(C)C2C3(O)OCC24C(CC(=O)OC14)C(C)C3O (centres undefined)" assigned_category=inactive
compound=CN(C)CCCn1nc(N)c2nc3cc(Cl)ccc3nc21 assigned_category=inactive
compound=CC(C)C1=C(Cc2ccccc2)C(=O)O/C1=C\c1ccc(O)c(Cl)c1 assigned_category=inactive
compound=O=C1C=Cc2ncccc2C1=O assigned_category=inactive
compound=CC1=NN(C(=O)c2ccccc2O)C(=O)/C1=C/c1cccc([N+](=O)[O-])c1 assigned_category=active
compound=Nc1nc(N)c2ncn(-c3ccc(Cl)cc3)c2n1 assigned_category=inactive
compound=O=C(N/N=C\c1cccc2ccccc12)Nc1ccc([N+](=O)[O-])cc1 assigned_category=inactive
compound=N#Cc1cccc(N2C(=O)c3c(c(-c4ccccc4)c(-c4ccc(Sc5ccc(-c6c(-c7ccccc7)c7c(c(-c8ccccc8)c6-c6ccccc6)C(=O)N(c6cccc(C#N)c6)C7=O)cc5)cc4)c(-c4ccccc4)c3-c3ccccc3)C2=O)c1 assigned_category=inactive
compound=c1ccc2cc3c(NC4=NCCO4)cccc3cc2c1 assigned_category=inactive
compound=O=C1CCN2c3ccccc3[C@H]3Cc4cccc(c4[C@@H]2C3)CCO1 assigned_category=inactive
compound="NC(=O)c1ccccc1NC(=O)C(=O)C(C(=O)c1ccc2ccccc2c1)C1OC(=O)c2ccccc21 (centres undefined)" assigned_category=inactive
compound=Cc1cc(O)nc(CNC(=O)c2cccc3ccccc23)n1 assigned_category=inactive
compound=Cn1c(=O)[nH]n(-c2ccc3ccccc3c2)c1=O assigned_category=inactive
compound=O=C(c1ccccc1)c1ccc2[nH]c(-c3c(Cl)c(Cl)c(Cl)c(Cl)c3C(=O)N/N=C/c3cccc(Oc4ccccc4)c3)nc2c1 assigned_category=inactive
compound=O=C1C[C@@H]2CCCC[C@@H]2C12SCCS2 assigned_category=inactive
compound=CN1C/C(=C\c2ccccc2[N+](=O)[O-])C(=O)/C(=C/c2ccccc2[N+](=O)[O-])C1 assigned_category=inactive
